# Assay overview: Determination of half-life in SD rats (IV and PO, plasma LC-MS/MS)
# Test context: Sprague-Dawley (SD), rat, po, 2 mg/kg
Measured metric: half-life (h)
API: value field is a number in h; no unit string.

Compound: COc1ccc(COc2nc(N3CCC4(CC4)C3)ncc2C(=O)NCc2ccc(F)cc2)cc1Cl
Measured metric: half-life
Unit label: h
Value: 3.26
--
Compound: COc1ccc(CN=c2[nH]c(N3CCC[C@H]3CO)ncc2C(=O)NCc2ncccn2)cc1Cl [Avanafil, reference compound]
Measured metric: half-life
Unit label: h
Value: 0.51

Now, please, on to the next compound.
// half-life value for `COc1ccc(COc2nc(N3CCC4(CC4)C3)ncc2C(=O)N[C@H]2CC[C@H](O)CC2)cc1Cl` : 1.97
